Recorded viscosity for the following compounds
assay: xn = mol fraction of the nth substance listed; conditions: 303.15 K; 100 kPa; Liquid; Concentric cylinders viscometry; x1 = 0.5999
Response body: numeric value in mPa·s, unit text excluded.

Here is how some compounds turned out for viscosity.
[[record]]
compound = "CCOC(=O)CCC(=O)OCC [diethyl butanedioate] + CC(C)CO"
endpoint_name = "viscosity"
endpoint_value = 1.802

[[record]]
compound = "CCCCCCCC(=O)OCC [ethyl octanoate] + CC(C)CCO"
endpoint_name = "viscosity"
endpoint_value = 1.385

[[record]]
compound = "CCOC(=O)CCC(=O)OCC [diethyl butanedioate] + CC(C)CCO"
endpoint_name = "viscosity"
endpoint_value = 1.838


// moving on: another record for viscosity
**Q:** Give me measured viscosity, please, for this compound: CCCCCCCC(=O)OCC [ethyl octanoate] + CC(C)CO
**A:** 1.321
